Molecular target: T1, EsCas13d, nuclease-dead (Eubacterium siraeum, UniProt B0MS50, R295A;H300A;R849A;H854A)
T1 sequence: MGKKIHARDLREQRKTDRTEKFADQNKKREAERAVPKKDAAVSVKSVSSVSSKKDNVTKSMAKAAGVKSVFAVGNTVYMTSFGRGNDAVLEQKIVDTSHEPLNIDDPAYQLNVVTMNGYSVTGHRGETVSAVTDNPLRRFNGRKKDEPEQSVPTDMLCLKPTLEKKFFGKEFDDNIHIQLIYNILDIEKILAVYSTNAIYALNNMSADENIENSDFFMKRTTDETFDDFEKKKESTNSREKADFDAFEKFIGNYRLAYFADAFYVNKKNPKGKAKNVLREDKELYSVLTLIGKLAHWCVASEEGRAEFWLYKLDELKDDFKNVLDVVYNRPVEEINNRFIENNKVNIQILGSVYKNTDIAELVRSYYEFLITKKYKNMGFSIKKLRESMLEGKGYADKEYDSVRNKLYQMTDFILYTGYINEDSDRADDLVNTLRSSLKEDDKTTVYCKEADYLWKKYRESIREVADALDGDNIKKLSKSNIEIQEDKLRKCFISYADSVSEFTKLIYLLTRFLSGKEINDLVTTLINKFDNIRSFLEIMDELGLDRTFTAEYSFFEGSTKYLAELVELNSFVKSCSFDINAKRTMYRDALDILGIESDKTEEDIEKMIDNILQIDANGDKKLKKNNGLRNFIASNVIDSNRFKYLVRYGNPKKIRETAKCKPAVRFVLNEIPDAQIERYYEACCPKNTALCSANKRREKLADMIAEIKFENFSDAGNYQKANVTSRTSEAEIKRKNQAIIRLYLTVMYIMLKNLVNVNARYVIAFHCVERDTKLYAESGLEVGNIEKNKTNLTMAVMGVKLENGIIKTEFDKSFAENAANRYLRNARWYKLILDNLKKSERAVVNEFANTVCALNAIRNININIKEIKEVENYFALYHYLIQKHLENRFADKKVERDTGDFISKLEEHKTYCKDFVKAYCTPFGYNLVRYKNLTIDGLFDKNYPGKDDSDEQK
Test: crRNA (strand 1, pre-loaded); Mg2+; 40 mM Tris-HCl pH 7.5, 150 mM NaCl, 6 mM MgCl2, 1 mM DTT, 0.1% Tween-20, 0.2 mg/ml BSA; 25 C; 10 min per concentration, then washed
Settings: tags: His6-TwinStrep-SUMO cleaved; N-terminal SNAP kept (SNAP-Surface 488); label: 3' end held by stalled T7 RNA polymerase
Metric: Kd (nM)

| Binder | Assay value |
| --- | --- |
| target 3 insC 3' of 9,insU 3' of 4 (mixed) RNA 1: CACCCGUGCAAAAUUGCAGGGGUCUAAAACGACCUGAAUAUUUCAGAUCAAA RNA 2: GGGAAUGGAUCCACAUCUACGAAUUCGUUUUUGAUCUGAAAUACUUCAGUGUCUGCAGAUCGGAAGAGCACACGU | 41.5 |
| target 2 MT 5'PFS AAA 3'PFS CAC (mixed) RNA 1: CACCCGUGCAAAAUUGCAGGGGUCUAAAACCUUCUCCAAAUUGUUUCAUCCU RNA 2: GGGAAUGGAUCCACAUCUACGAAUUCAAAAGGAUGAAACAAUUUGGAGAAGCACAGAUCGGAAGAGCACACGU | 5.4 |
| target 1 insG 3' of 18,insA 3' of 17 (mixed) RNA 1: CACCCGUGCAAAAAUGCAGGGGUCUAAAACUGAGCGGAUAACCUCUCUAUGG RNA 2: GGGAAUGGAUCCACAUCUACGAAUUCGUACCAUAGGAAGAGGUUAUCCGCUCACCGAGAUCGGAAGAGCACACGU | 53 |
| target 3 insA 3' of 8,insA 3' of 7 (mixed) RNA 1: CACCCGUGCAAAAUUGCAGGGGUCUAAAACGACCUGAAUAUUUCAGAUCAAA RNA 2: GGGAAUGGAUCCACAUCUACGAAUUCGUUUUUGAUCUGAAAUAUAUACAGGUCUGCAGAUCGGAAGAGCACACGU | 44.5 |
| target 1 MT 5'PFS UCG 3'PFS UAU (mixed) RNA 1: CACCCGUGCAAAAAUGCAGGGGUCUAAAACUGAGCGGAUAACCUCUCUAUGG RNA 2: GGGAAUGGAUCCACAUCUACGAAUUCUCGCCAUAGAGAGGUUAUCCGCUCAUAUAGAUCGGAAGAGCACACGU | 27 |
| target 1 insG 3' of 14,insC 3' of 5 (mixed) RNA 1: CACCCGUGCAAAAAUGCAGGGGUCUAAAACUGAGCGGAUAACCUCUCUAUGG RNA 2: GGGAAUGGAUCCACAUCUACGAAUUCGUACCAUAGAGAGGGUUAUCCGCCUCACCGAGAUCGGAAGAGCACACGU | 12.1 |
| target 2 MT 5'PFS GAA 3'PFS AGC (mixed) RNA 1: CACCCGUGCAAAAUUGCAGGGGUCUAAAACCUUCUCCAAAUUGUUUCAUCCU RNA 2: GGGAAUGGAUCCACAUCUACGAAUUCGAAAGGAUGAAACAAUUUGGAGAAGAGCAGAUCGGAAGAGCACACGU | 6.3 |
| target 1 insG 3' of 22,insU 3' of 21 (mixed) RNA 1: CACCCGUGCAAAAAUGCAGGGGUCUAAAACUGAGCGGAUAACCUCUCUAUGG RNA 2: GGGAAUGGAUCCACAUCUACGAAUUCGUACGCUAUAGAGAGGUUAUCCGCUCACCGAGAUCGGAAGAGCACACGU | 30 |
| target 2 MT 5'PFS AUU 3'PFS UCC (mixed) RNA 1: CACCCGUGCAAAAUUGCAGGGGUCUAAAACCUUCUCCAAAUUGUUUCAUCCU RNA 2: GGGAAUGGAUCCACAUCUACGAAUUCAUUAGGAUGAAACAAUUUGGAGAAGUCCAGAUCGGAAGAGCACACGU | 16.7 |
| target 1 C2U,C4G (mixed) RNA 1: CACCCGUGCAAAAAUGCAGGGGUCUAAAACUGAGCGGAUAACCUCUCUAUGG RNA 2: GGGAAUGGAUCCACAUCUACGAAUUCGUACCAUAGAGAGGUUAUCCGGUUACCGAGAUCGGAAGAGCACACGU | 5.1 |
| target 2 MT 5'PFS CUA 3'PFS UUA (mixed) RNA 1: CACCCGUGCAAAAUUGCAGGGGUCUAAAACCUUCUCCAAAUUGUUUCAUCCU RNA 2: GGGAAUGGAUCCACAUCUACGAAUUCCUAAGGAUGAAACAAUUUGGAGAAGUUAAGAUCGGAAGAGCACACGU | 1.88 |
| target 1 insU 3' of 22,insG 3' of 3 (mixed) RNA 1: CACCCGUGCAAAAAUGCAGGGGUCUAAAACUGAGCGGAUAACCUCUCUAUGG RNA 2: GGGAAUGGAUCCACAUCUACGAAUUCGUACUCAUAGAGAGGUUAUCCGCUGCACCGAGAUCGGAAGAGCACACGU | 25.3 |
| target 1 MT 5'PFS GCC 3'PFS UUA (mixed) RNA 1: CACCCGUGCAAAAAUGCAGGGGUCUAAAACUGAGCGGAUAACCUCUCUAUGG RNA 2: GGGAAUGGAUCCACAUCUACGAAUUCGCCCCAUAGAGAGGUUAUCCGCUCAUUAAGAUCGGAAGAGCACACGU | 12.5 |
| target 1 G13A,A16C (mixed) RNA 1: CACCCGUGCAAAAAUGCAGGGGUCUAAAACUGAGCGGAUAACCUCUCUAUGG RNA 2: GGGAAUGGAUCCACAUCUACGAAUUCGUACCAUAGCGAAGUUAUCCGCUCACCGAGAUCGGAAGAGCACACGU | 28.8 |
